These data points were gathered from patent US20240199702A1.

Where a SMILES comes first, the peptide text is derived from it. [ ]: non-standard residue; d: D form. The star is where a group is joined. Ala(thiazol-5-yl) = N[C@@H](Cc1cncs1)C(=O)O; Ala(4-thiazolyl) = N[C@@H](Cc1cscn1)C(=O)O; Phe(4-Cl) = N[C@@H](Cc1ccc(Cl)cc1)C(=O)O; Phe(4-F) = N[C@@H](Cc1ccc(F)cc1)C(=O)O; NMeF = CN[C@@H](Cc1ccccc1)C(=O)O; NMeT = CN[C@H](C(=O)O)[C@@H](C)O; NMeV = CN[C@H](C(=O)O)C(C)C; Isovaleryl = CC(C)CC(=O)*; hSer = N[C@@H](CCO)C(=O)O; NMeA = CN[C@@H](C)C(=O)O; dNMeA = CN[C@H](C)C(=O)O; Nme = COCCNCC(=O)O; Sar = CNCC(=O)O
Target or system Human MDM2 (HDM2) 1-116 (Homo sapiens, UniProt Q00987): recorded IC50 listed per item.

# compound, reportedMetric, dataValue
measured = [
    ("COCC[C@@H]1NC(=O)[C@H]2CCCN2C(=O)[C@H](Cc2ccccc2)N(C)C(=O)[C@H](Cc2ccc(Cl)cc2)NC(=O)[C@H](C(C)C)N(C)C(=O)[C@H](Cc2ccc(F)cc2)NC(=O)CN(C)C(=O)[C@@H](C)N(C)C(=O)[C@H](Cc2cncs2)NC(=O)[C@H](C)N(C)C1=O [compound 27] (cyclo([NMeA][Ala(thiazol-5-yl)][dNMeA][Sar][Phe(4-F)][NMeV][Phe(4-Cl)][NMeF][dP][hSer](Me)))", "IC50", "< 25 nM"),
    ("COCC[C@@H]1NC(=O)[C@H]2CCCN2C(=O)[C@H](Cc2ccccc2)N(C)C(=O)[C@H](Cc2ccc(Cl)cc2)NC(=O)[C@H]([C@@H](C)O)N(C)C(=O)[C@H](Cc2ccc(F)cc2)NC(=O)CN(CCOC)C(=O)[C@@H](C)N(C)C(=O)[C@H](Cc2cscn2)NC(=O)[C@H](C)N(C)C1=O [compound 19] (cyclo([Ala(4-thiazolyl)][dNMeA][Nme][Phe(4-F)][NMeT][Phe(4-Cl)][NMeF][dP][hSer](Me)[NMeA]))", "IC50", "< 25 nM"),
]

Consider now this further compound.
Under Human MDM2 (HDM2) 1-116 (Homo sapiens, UniProt Q00987): IC50 value of COCC[C@@H]1NC(=O)[C@H]2CCCN2C(=O)[C@H](Cc2ccccc2)N(C)C(=O)[C@H](Cc2ccc(Cl)cc2)NC(=O)[C@H]([C@@H](C)OC(=O)CC(C)C)NC(=O)[C@H](Cc2ccc(F)cc2)NC(=O)CN(CCOC)C(=O)[C@@H](C)N(C)C(=O)[C@H](Cc2cscn2)NC(=O)[C@H](C)N(C)C1=O [compound 5] (cyclo([Ala(4-thiazolyl)][dNMeA][Nme][Phe(4-F)]T(Isovaleryl)[Phe(4-Cl)][NMeF][dP][hSer](Me)[NMeA])) ?
25 to 50 nM

---

pIC50: −log10 of the molar value. Where a SMILES comes first, the peptide text is derived from it. [ ]: non-standard residue; d: D form. The star is where a group is joined. Ala(thiazol-5-yl) = N[C@@H](Cc1cncs1)C(=O)O; Ala(4-thiazolyl) = N[C@@H](Cc1cscn1)C(=O)O; Phe(4-Cl) = N[C@@H](Cc1ccc(Cl)cc1)C(=O)O; Phe(4-F) = N[C@@H](Cc1ccc(F)cc1)C(=O)O; NMeF = CN[C@@H](Cc1ccccc1)C(=O)O; NMeV = CN[C@H](C(=O)O)C(C)C; Methoxyacetyl = COCC(=O)*; hSer = N[C@@H](CCO)C(=O)O; NMeA = CN[C@@H](C)C(=O)O; dNMeA = CN[C@H](C)C(=O)O; Nme = COCCNCC(=O)O; NEtG = CCNCC(=O)O
// pIC50 collected for Human MDM2 (HDM2) 1-116 (Homo sapiens, UniProt Q00987)

# molecule, pIC50
measured = [
    ("COCC[C@@H]1NC(=O)[C@H]2CCCN2C(=O)[C@H](Cc2ccccc2)N(C)C(=O)[C@H](Cc2ccc(Cl)cc2)NC(=O)[C@H]([C@@H](C)O)NC(=O)[C@H](Cc2ccc(F)cc2)NC(=O)CN(CCOC)C(=O)[C@@H](C)N(C)C(=O)[C@H](Cc2cscn2)NC(=O)[C@H](C)N(C)C1=O [compound 18] (cyclo([hSer](Me)[NMeA][Ala(4-thiazolyl)][dNMeA][Nme][Phe(4-F)]T[Phe(4-Cl)][NMeF][dP]))", "> 7.60"),
    ("COCC[C@@H]1NC(=O)[C@H]2CCCN2C(=O)[C@H](Cc2ccccc2)N(C)C(=O)[C@H](Cc2ccc(Cl)cc2)NC(=O)[C@H]([C@@H](C)OC(=O)COC)NC(=O)[C@H](Cc2ccc(F)cc2)NC(=O)CN(CCOC)C(=O)[C@@H](C)N(C)C(=O)[C@H](Cc2cscn2)NC(=O)[C@H](C)N(C)C1=O [compound 4] (cyclo([Ala(4-thiazolyl)][dNMeA][Nme][Phe(4-F)]T(Methoxyacetyl)[Phe(4-Cl)][NMeF][dP][hSer](Me)[NMeA]))", "> 7.60"),
]

# value lookup — system Human MDM2 (HDM2) 1-116 (Homo sapiens, UniProt Q00987), readout pIC50, item CCN1CC(=O)N[C@@H](Cc2ccc(F)cc2)C(=O)N(C)[C@@H](C(C)C)C(=O)N[C@@H](Cc2ccc(Cl)cc2)C(=O)N(C)[C@@H](Cc2ccccc2)C(=O)N2CCC[C@@H]2C(=O)N[C@@H](CCOC)C(=O)N(C)[C@@H](C)C(=O)N[C@@H](Cc2cncs2)C(=O)N(C)[C@H](C)C1=O [compound 25] (cyclo([NEtG][Phe(4-F)][NMeV][Phe(4-Cl)][NMeF][dP][hSer](Me)[NMeA][Ala(thiazol-5-yl)][dNMeA]))
> 7.60
